Value source: ChEMBL document CHEMBL2040723

Species on record: Cavia porcellus
ASSAY_PROTOCOL: Intrinsic activity at muscarinic M3 receptor in guinea pig ileum after 45 mins relative to bethanechol
Type: tissue-based
READOUT_TYPE: Intrinsic activity
Answers are plain numbers.

Before answering, review these 3 worked examples.
Given CC[C@H]1COC[C@@H](C[N+](C)(C)C)O1.[I-] (relative stereo) , state its recorded Intrinsic activity. 1

I'd like to know its Intrinsic activity. The compound in question is C[N+](C)(C)C[C@@H]1COC[C@H](c2ccccc2)O1.[I-] (relative stereo) 0

# get_value(readout='Intrinsic activity', item= C[N+](C)(C)CC1COCC(c2ccccc2)(c2ccccc2)O1.[I-] (racemic) ) 0

# map each compound to its Intrinsic activity
1. C[N+](C)(C)C[C@@H]1COC[C@@H](c2ccccc2)O1.[I-] (relative stereo)
2. C[N+](C)(C)C[C@H]1COCC(c2ccccc2)(c2ccccc2)O1.[I-]
3. CC[C@@H]1COC[C@@H](C[N+](C)(C)C)O1.[I-] (relative stereo)
4. CN(C)CC1COCC(c2ccccc2)(c2ccccc2)O1.O=C(O)C(=O)O (racemic)
5. C[N+](C)(C)C[C@@H]1COCC(c2ccccc2)(c2ccccc2)O1.[I-]
6. CCN(CC)CC#CCOC(=O)C(O)(c1ccccc1)C1CCCCC1 (configuration not stated)
7. C[C@H]1COC[C@@H](C[N+](C)(C)C)O1.[I-]
8. CN(C)C[C@H]1COCC(c2ccccc2)(c2ccccc2)O1.O=C(O)C(=O)O

1: 0; 2: 0; 3: 1; 4: 0; 5: 0; 6: 0; 7: 1; 8: 0

Consider the compound CN(C)C[C@@H]1COCC(c2ccccc2)(c2ccccc2)O1.O=C(O)C(=O)O and give its measured Intrinsic activity. 0
